Biological target: T1, human PTH-1 receptor (human, UniProt Q03431 27-593)
T1 sequence (looked up): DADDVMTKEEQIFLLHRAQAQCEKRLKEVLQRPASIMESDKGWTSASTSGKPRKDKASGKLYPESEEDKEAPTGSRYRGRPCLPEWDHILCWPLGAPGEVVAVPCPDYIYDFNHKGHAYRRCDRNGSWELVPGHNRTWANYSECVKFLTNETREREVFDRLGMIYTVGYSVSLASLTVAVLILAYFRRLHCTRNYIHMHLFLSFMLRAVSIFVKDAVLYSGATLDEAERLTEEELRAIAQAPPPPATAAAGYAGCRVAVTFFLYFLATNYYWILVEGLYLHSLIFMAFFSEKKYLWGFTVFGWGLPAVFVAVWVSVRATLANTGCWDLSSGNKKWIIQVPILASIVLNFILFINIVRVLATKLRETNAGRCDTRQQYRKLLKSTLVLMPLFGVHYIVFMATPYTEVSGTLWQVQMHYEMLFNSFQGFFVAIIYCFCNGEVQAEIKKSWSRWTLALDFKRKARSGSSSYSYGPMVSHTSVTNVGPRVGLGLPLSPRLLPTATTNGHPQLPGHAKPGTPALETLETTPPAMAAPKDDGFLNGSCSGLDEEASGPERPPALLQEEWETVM
Assay: cell-based or functional assay
Square brackets hold non-standard residues; d marks the D form. Ends that are not written are not given here. Nle = CCCC[C@H](N)C(=O)O
measured-attribute: cAMP Emax, COS-7 cells, WT hPTH-1 receptor (picomole/well)

binder	val
AVSEIQLMHNLGKH-NH2 [native rat (r)PTH(1-14)NH2]	221
AVAEIQLMHAR-NH2 [[A3,A10,R11]rPTH(1-11)]	238
AVAEIQLMHARAKH-NH2 [[A3,A10,R11,A12]rPTH(1-14)amide]	243
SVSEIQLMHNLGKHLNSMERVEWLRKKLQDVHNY-NH2 [[Tyr^34]human (h)PTH(1-34)NH2]	226
AVSEIQL[Nle]HNLGKHLASVER[Nle]QWLRKKLQDVHNY-NH2 [[Nle^8,21,Tyr^34]-rPTH(1-34)NH2]	226
